ASSAY SYSTEM: ErbB4 on neonatal rat cardiomyocytes (rat) (UniProt Q62956)
Sequence (Q62956 26-1308): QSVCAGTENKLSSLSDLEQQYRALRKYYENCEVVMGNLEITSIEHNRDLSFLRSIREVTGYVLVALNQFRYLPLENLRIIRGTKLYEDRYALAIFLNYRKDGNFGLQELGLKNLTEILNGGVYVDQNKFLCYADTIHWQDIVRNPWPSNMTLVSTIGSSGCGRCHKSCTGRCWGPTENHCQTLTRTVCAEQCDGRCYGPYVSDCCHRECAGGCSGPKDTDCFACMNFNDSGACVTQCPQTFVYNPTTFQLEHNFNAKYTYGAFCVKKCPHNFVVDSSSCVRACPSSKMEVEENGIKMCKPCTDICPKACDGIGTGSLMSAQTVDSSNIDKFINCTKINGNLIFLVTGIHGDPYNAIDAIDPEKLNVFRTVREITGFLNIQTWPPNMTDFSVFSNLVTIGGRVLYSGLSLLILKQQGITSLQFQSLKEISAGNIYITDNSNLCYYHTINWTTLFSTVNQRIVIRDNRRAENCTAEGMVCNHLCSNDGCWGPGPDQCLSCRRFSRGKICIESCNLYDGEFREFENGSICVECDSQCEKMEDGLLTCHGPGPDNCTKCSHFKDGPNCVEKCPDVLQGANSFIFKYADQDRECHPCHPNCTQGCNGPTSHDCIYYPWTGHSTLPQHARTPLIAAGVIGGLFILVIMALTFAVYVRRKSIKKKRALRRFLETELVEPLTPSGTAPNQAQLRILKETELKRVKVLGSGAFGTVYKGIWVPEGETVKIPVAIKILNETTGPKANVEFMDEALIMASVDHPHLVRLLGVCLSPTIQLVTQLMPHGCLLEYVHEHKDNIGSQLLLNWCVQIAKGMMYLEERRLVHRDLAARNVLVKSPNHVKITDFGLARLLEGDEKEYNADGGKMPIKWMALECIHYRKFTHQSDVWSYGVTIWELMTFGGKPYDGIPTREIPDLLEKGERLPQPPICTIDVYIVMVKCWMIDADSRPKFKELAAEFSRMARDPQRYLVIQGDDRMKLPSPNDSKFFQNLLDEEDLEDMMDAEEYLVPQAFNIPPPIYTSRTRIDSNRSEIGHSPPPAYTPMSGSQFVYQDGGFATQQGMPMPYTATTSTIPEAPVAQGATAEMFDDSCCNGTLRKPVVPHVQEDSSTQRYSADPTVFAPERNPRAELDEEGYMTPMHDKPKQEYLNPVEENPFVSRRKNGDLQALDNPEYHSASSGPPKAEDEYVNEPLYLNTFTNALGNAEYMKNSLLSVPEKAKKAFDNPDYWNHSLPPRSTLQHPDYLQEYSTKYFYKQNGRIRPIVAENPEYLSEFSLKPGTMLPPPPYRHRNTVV
MEASUREMENT PROTOCOL: cell-based or functional assay
OBSERVATION TYPE: Selectivity SC/CM

| BINDER | Selectivity SC/CM |
| --- | --- |
| huNRG1(S177-Q237)(NRGE1B)::GG::huFcSEFL2 (Pb) (Fc fusion) SHLVKCGENDKSFCVNGGECYMVEGSSIPSRYLCKCPNEFTGDRCQEDFMASFYKAEELYQGGDKTHTCPPCPAPELLGGPSVFLFPPKPKDTLMISRTPEVTCVVVDVSHEDPEVKFNWYVDGVEVHNAKTKPCEEQYGSTYRCVSVLTVLHQDWLNGKEYKCKVSNKALPAPIEKTISKAKGQPREPQVYTLPPSREEMTKNQVSLTCLVKGFYPSDIAVEWESNGQPENNYKTTPPVLDSDGSFFLYSKLTVDKSRWQQGNVFSCSVMHEALHNHYTQKSLSLSPGK | > 6700 |
| huNRG1(S177-F229)(NRGE1C) (D48T_F49Q_M50I) 6xHis (ligand) SHLVKCGEKHKSFCVNGGECFMIEGPSNPSRYLCKCPNEFTGDRCQETQIASFGGGGEGGGGAGGGGHHHHHH | > 10000 |

Let us examine a further case.
Query block: For the binder huNRG1(S177-F229)(NRGE1C)::1KmodT482V, M493L)::huFcSEFL2 (Pb) (Fc fusion) SHLVKCGEKHKSFCVNGGECFMIEGPSNPSRYLCKCPNEFTGDRCQEDFMASFGSGSATGGSGSVASSGSGSATHLDKTHTCPPCPAPELLGGPSVFLFPPKPKDTLMISRTPEVTCVVVDVSHEDPEVKFNWYVDGVEVHNAKTKPCEEQYGSTYRCVSVLTVLHQDWLNGKEYKCKVSNKALPAPIEKTISKAKGQPREPQVYTLPPSREEMTKNQVSLTCLVKGFYPSDIAVEWESNGQPENNYKTTPPVLDSDGSFFLYSKLTVDKSRWQQGNVFSCSVMHEALHNHYTQKSLSLSPGK , what Selectivity SC/CM is on record?
Result block: > 10000

The reported numbers originate from patent US20220402985A1.
